Provide the reported IC50 of each item.
Test system: T47D
protocol_details: SRB antiproliferation assay, T47D breast cancer cells
Type: cell-based
settings: Homo sapiens, T47D, 72 h, read-out: Cytotoxicity (as of %Control) IC50 value, T47D, SRB, 72 h incubations, mean ± SD, n = 3

Name the reported IC50 value associated with the molecule "CC[C@H](C)C(=O)O[C@H]1CCC=C2C=C[C@H](C)[C@H](CC[C@@H]3C[C@@H](O)CC(=O)O3)[C@H]21"
> 50 µM

Next up: "CC(C)c1nc(N(C)S(C)(=O)=O)nc(-c2ccc(F)cc2)c1/C=C/[C@@H](O)C[C@@H](O)CC(=O)O"
> 50 µM
